method.summary: Chlorine dioxide generation test 1: organic substance added to sodium chlorite solution, reactivity observed
Assay type: physicochemical
Parameters: key: high reaction rate (+++++) resulted in the initiation of chlorine dioxide gas generation relatively quickly within several hours to several days after the addition; intermediate reaction rate (+++) resulted in the initiation of chlorine dioxide gas generation within several days to several tens of days after the addition; The reaction initiation time of the organic substances with a slow reaction rate (+) is hard to specify
condition.details: organic substance added to 23% aqueous sodium chlorite; room temperature and refrigerated temperature

molecule: O=C1NS(=O)(=O)c2ccccc21.[Na] [Sodium saccharin]
Reaction rate: +++
--
molecule: OC[C@H]1O[C@@](CO)(O[C@H]2O[C@H](CO)[C@@H](O)[C@H](O)[C@H]2O)[C@@H](O)[C@@H]1O
Reaction rate: +++
--
molecule: OC[C@H]1O[C@H](O[C@H]2O[C@H](CO)[C@@H](O)[C@H](O)[C@H]2O)[C@H](O)[C@@H](O)[C@@H]1O
Reaction rate: +++
--
molecule: CCO
Reaction rate: +++++
--
molecule: N[C@@H](CCC(=O)[O-])C(=O)[O-].[Na+].[Na+] [Sodium glutamate]
Reaction rate: +++++
--
molecule: OC[C@@H](O)[C@@H](O)[C@H](O)[C@@H](O)CO
Reaction rate: +++
--
molecule: OCC(O)CO
Reaction rate: +++++
--
molecule: [O]=[Ca] [Calcium oxide]
Reaction rate: No reaction
--
molecule: O=C([O-])[O-].[Na+].[Na+] [Sodium carbonate]
Reaction rate: +
--
molecule: [K+].[OH-] [Potassium hydroxide]
Reaction rate: No reaction
--
molecule: [Cl-].[Na+] [Salt]
Reaction rate: No reaction
--
molecule: [Ca+2].[OH-].[OH-] [Calcium hydroxide]
Reaction rate: No reaction
--
molecule: OO [Hydrogen peroxide]
Reaction rate: No reaction
--
molecule: O=C(CO)[C@@H](O)[C@H](O)[C@H](O)CO
Reaction rate: +++
--
molecule: [Na+].[OH-] [Sodium hydroxide]
Reaction rate: No reaction

All figures here come from patent US20260152395A1.
